Where do the numbers come from? From patent US20230364121A1.

# System: HCoV
# experiment-summary: microbe, parasite or virus in culture
# Type: cell-based, human coronavirus
# experimental-setup: unidentified human coronavirus, BHK-21, 72 h
observable: EC50 (µM)
Please respond with the number in µM and leave the unit unwritten.

# molecule, measured-on, EC50, µM
records = [
    ("CNc1nc(N)nc2c1ncn2[C@@H]1O[C@H](CO[P@](=O)(N[C@@H](C)C(=O)OC(C)C)Oc2ccccc2)[C@@H](O)[C@@]1(C)F [drawing 233]", "HCoV", 2.5),
    ("CNc1nc(N)nc2c1ncn2[C@@H]1O[C@H](CO[P@@](=O)(N[C@@H](C)C(=O)OC(C)C)Oc2ccccc2)[C@@H](O)[C@@]1(C)F [drawing 232]", "HCoV", 1.6),
]

[in] # lookup: EC50 of CCC(CC)COC(=O)[C@H](C)N[P@](=O)(OC[C@H]1O[C@@](C#N)(c2ccc3c(N)ncnn23)[C@H](O)[C@@H]1O)Oc1ccccc1 [drawing 237]
[out] 7.2

[in] What do you get for CC(C)(CO)C(=O)SCCOP(=O)(NCc1ccccc1)OC[C@H]1O[C@@H](n2cnc3c(=O)[nH]c(N)nc32)[C@](C)(O)[C@@H]1O (stereo partly drawn) [drawing 236] ?
[out] 1.7

----------
# System: SARS-CoV-2 strain BavPatl
# experiment-summary: Antiviral assay in HUH7.5 cells, viral RNA by RT-qPCR
# Format: cell-based
# experimental-setup: 2 days
observable: pEC50
As a rule, pEC50 stands for the negative log10 of the concentration, concentration in M.

[in] # lookup: pEC50 of `CC(C)C(=O)OC[C@H]1O[C@@H](n2ccc(NO)nc2=O)[C@H](O)[C@@H]1O`
[out] 5.77

----------
# experiment-summary: in vitro
# experimental-setup: human
observable: CC50

# compound, measured-value
rows = [
    ("CC(C)C(=O)OC[C@H]1O[C@@H](n2ccc(NO)nc2=O)[C@H](O)[C@@H]1O", "> 20 µM"),
]

Consider the record given below.
[in] # lookup: CC50 of CC(C)C[C@H](NC(=O)OCc1ccccc1)C(=O)N[C@@H](C[C@@H]1CCNC1=O)C(O)S(=O)(=O)O (some centres unmarked)
[out] > 20 µM

----------
# Tested on: HCoV-229E
# experiment-summary: Virus-induced CPE assay, HCoV-229E in BHK-21 cells (MTT)
# Type: cell-based
# experimental-setup: Human coronavirus 229E, BHK-21, 72 h, BHK-21; dye staining; 3-day incubation; read-out: EC50
observable: EC50 (µM)
Please respond with the number in µM and leave the unit unwritten.

[in] # lookup: EC50 of `CNc1nc(N)nc2c1ncn2[C@@H]1O[C@H](CO[P@@](=O)(N[C@@H](C)C(=O)OC(C)C)Oc2ccccc2)[C@@H](O)[C@@]1(C)F`
[out] 1.8

----------
# System: dNHBE (HAE) cells
# experimental-setup: human
observable: CC50

[in] # lookup: CC50 of O=c1nc(NO)ccn1[C@@H]1O[C@H](CO)[C@@H](O)[C@H]1O [N4-hydroxycytidine, reference compound]
[out] > 19 µM

----------
# experiment-summary: Cytotoxicity in mock infected BHK cells (MTT)
# Type: cell-based, hamster
# experimental-setup: hamster, mock infected BHK cells; Table 2A; MTT, 3 days
observable: CC50 at 3 days

Recorded CC50 at 3 days, per entry:
# molecule, CC50 at 3 days
measured = [
    ("CCC(CC)COC(=O)[C@H](C)N[P@](=O)(OC[C@H]1O[C@@](C#N)(c2ccc3c(N)ncnn23)[C@H](O)[C@@H]1O)Oc1ccccc1 [drawing 237]", "> 100 µM"),
    ("CC(C)(CO)C(=O)SCCOP(=O)(NCc1ccccc1)OC[C@H]1O[C@@H](n2cnc3c(=O)[nH]c(N)nc32)[C@](C)(O)[C@@H]1O (some centres unmarked) [drawing 236]", "65 µM"),
    ("CC(C)OC(=O)[C@H](C)N[P@](=O)(OCC1O[C@@H](n2ccc(=O)[nH]c2=O)[C@](C)(F)[C@@H]1O)Oc1ccccc1 (some centres unmarked) [drawing 234]", "> 100 µM"),
    ("CC(C)[C@H](N)C(=O)O[C@@H]1[C@@H](CO)O[C@@H](n2ccc(N)nc2=O)[C@]1(C)O [drawing 238]", "> 100 µM"),
]

Consider the record given below.
[in] # lookup: CC50 at 3 days of CNc1nc(N)nc2c1ncn2[C@@H]1O[C@H](CO[P@](=O)(N[C@@H](C)C(=O)OC(C)C)Oc2ccccc2)[C@@H](O)[C@@]1(C)F [drawing 233]
[out] > 100 µM
